- Tested on: MV4-11
- assayInfo: Activity against AML cell line MV4-11 (CellTiter-Blue, 72 h)
- Type: cell-based
- assayConditions: FIG. 1; read-out: anticancer activities (IC50) against MV4-11
pIC50: −log10 of the molar value.
reportedProperty: pIC50

# compound, measurementTarget, pIC50
rows = [
    ("CN(C)CCCNC(=O)c1cccc(C#Cc2c(N)ncc3ccc(Cl)cc23)c1", "MV4-11", 6.60),
]

1. CN(C)CCNC(=O)c1ccc(C#Cc2c(N)ncc3ccc(Cl)cc23)cc1
2. CN(C)CC(O)CNC(=O)c1ccc(C#Cc2c(N)ncc3ccc(Cl)cc23)cc1 (centres unmarked)
3. CN(C)CCCCCNC(=O)c1ccc(C#Cc2c(N)ncc3ccc(Cl)cc23)cc1
4. COCCCNC(=O)c1ccc(C#Cc2c(N)ncc3ccc(Cl)cc23)cc1
Provide the items ranked by increasing pIC50. To answer, arrange all of the labels according to the requested order.
4, 1, 3, 2

====

- measurementTarget: UniProt:P36888
# key: entry, value: pKd
Please keep in mind that pKd is minus log10 of the molar concentration; only the number is needed.

The following compounds have reported results that may help.
# compound, pKd
rows = [
    ("Cc1ccc(C(=O)Nc2ccc(CN3CCN(C)CC3)c(C(F)(F)F)c2)cc1C#Cc1cnc(N)c2ccccc12", 8.29),
    ("Cc1ccc(C(=O)Nc2ccc(CN3CCN(C)CC3)c(C(F)(F)F)c2)cc1C#Cc1cnc(N)c2ncccc12", 8.89),
]

Find the recorded pKd belonging to Cc1ccc(C(=O)NCC(O)CN(C)C)cc1C#Cc1c(N)ncc2ccc(Cl)cc12 (stereo not drawn) and report it.
7.28

====

- measurementTarget: TRKB (Homo sapiens (Human), UniProt Q16620)
- Sequence (Q16620 32-822): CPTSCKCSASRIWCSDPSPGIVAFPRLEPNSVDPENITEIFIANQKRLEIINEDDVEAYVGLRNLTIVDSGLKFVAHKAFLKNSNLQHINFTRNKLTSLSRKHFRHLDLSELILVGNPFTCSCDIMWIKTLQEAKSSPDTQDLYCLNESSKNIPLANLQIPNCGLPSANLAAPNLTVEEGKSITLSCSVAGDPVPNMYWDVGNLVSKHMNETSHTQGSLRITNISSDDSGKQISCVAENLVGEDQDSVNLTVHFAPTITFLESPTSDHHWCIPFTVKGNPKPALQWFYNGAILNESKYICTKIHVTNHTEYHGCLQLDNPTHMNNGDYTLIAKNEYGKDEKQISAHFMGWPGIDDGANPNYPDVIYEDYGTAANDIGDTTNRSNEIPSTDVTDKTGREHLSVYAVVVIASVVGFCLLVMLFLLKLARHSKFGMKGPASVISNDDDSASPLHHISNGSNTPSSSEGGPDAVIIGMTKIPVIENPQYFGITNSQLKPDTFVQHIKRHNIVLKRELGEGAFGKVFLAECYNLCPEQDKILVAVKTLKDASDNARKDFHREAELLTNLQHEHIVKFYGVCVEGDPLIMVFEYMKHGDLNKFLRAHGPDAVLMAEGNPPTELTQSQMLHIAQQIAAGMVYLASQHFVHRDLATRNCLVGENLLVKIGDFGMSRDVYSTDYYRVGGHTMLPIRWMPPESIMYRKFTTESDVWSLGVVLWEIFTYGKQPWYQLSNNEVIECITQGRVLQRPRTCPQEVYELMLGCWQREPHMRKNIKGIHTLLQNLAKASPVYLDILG
- assayInfo: Reaction Biology HotSpot kinase assay
- Format: biochemical
- assayConditions: 500 nM compound; read-out: Percentage kinase inhibition TRKB
reportedProperty: inhibition at 0.5 µM (%)

# lineNotation, measurementTarget, valueReported
data = [
    ("Cc1ccc(C(=O)Nc2ccc(CN3CCN(C)CC3)c(C(F)(F)F)c2)cc1C#Cc1c(N)ncc2ccc(Cl)cc12", "TRKB (Homo sapiens (Human), UniProt Q16620)", 79),
    ("COc1cc2nc(N)nc(C#Cc3cc(C(=O)Nc4ccc(CN5CCN(C)CC5)c(C(F)(F)F)c4)ccc3C)c2cc1OC", "TRKB (Homo sapiens (Human), UniProt Q16620)", 0),
    ("Cc1ccc(C(=O)Nc2ccc(CN3CCN(C)CC3)c(C(F)(F)F)c2)cc1C#Cc1cnc(N)c2ccccc12", "TRKB (Homo sapiens (Human), UniProt Q16620)", 41),
    ("Cc1ccc(C(=O)Nc2ccc(CN3CCN(C)CC3)c(C(F)(F)F)c2)cc1C#Cc1cc(N)nc2ccccc12", "TRKB (Homo sapiens (Human), UniProt Q16620)", 0),
    ("Cc1ccc(C(=O)Nc2ccc(CN3CCN(C)CC3)c(C(F)(F)F)c2)cc1C#Cc1cnc(N)c2ncccc12", "TRKB (Homo sapiens (Human), UniProt Q16620)", 75),
]

====

- measurementTarget: UniProt:Q12866
- Sequence (Q12866 21-999): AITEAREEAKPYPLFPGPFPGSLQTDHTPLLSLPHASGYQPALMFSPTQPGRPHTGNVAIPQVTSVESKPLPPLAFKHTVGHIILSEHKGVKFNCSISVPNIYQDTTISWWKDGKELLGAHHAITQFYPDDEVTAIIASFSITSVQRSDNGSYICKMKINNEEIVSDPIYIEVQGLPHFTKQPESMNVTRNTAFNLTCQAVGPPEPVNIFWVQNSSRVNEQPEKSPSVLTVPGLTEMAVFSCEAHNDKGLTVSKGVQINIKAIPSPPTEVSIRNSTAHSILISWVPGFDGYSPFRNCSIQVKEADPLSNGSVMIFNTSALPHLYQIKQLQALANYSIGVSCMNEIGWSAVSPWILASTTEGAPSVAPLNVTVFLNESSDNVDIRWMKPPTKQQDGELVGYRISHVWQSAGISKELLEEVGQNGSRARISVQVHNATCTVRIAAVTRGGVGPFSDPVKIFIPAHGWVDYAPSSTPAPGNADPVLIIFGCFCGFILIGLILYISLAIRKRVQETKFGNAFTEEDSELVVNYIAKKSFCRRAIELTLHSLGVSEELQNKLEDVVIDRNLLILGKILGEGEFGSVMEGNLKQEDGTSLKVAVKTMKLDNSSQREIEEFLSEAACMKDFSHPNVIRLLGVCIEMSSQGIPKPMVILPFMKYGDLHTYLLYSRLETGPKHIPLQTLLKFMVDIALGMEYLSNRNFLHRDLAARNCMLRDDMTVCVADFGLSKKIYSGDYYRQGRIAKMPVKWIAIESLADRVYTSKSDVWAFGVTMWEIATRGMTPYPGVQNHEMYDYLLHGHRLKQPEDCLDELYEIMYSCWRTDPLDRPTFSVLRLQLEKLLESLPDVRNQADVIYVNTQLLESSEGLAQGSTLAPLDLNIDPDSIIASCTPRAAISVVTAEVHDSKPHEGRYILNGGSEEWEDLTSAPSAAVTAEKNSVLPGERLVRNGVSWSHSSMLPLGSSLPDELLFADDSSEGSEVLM
- assayInfo: Reaction Biology HotSpot kinase assay
- Assay type: biochemical
- assayConditions: 500 nM compound; read-out: Percentage kinase inhibition c-MER
reportedProperty: inhibition at 0.5 µM (%)

# lineNotation, valueReported
rows = [
    ("Cc1ccc(C(=O)Nc2ccc(CN3CCN(C)CC3)c(C(F)(F)F)c2)cc1C#Cc1cnc(N)c2ncccc12", 0),
    ("Cc1ccc(C(=O)Nc2ccc(CN3CCN(C)CC3)c(C(F)(F)F)c2)cc1C#Cc1cnc(N)c2ccccc12", 0),
    ("Cc1ccc(C(=O)Nc2ccc(CN3CCN(C)CC3)c(C(F)(F)F)c2)cc1C#Cc1c(N)ncc2ccc(Cl)cc12", 0),
]

1. COc1cc2nc(N)nc(C#Cc3cc(C(=O)Nc4ccc(CN5CCN(C)CC5)c(C(F)(F)F)c4)ccc3C)c2cc1OC
2. Cc1ccc(C(=O)Nc2ccc(CN3CCN(C)CC3)c(C(F)(F)F)c2)cc1C#Cc1cc(N)nc2ccccc12
Sorting by inhibition at 0.5 µM in descending order, would 1 or 2 appear first? Which one? Tell me its label.
2
(2: 3%, 1: 0%)

====

- measurementTarget: PLK1 (Homo sapiens (Human))
- Sequence (P53350 whole entry): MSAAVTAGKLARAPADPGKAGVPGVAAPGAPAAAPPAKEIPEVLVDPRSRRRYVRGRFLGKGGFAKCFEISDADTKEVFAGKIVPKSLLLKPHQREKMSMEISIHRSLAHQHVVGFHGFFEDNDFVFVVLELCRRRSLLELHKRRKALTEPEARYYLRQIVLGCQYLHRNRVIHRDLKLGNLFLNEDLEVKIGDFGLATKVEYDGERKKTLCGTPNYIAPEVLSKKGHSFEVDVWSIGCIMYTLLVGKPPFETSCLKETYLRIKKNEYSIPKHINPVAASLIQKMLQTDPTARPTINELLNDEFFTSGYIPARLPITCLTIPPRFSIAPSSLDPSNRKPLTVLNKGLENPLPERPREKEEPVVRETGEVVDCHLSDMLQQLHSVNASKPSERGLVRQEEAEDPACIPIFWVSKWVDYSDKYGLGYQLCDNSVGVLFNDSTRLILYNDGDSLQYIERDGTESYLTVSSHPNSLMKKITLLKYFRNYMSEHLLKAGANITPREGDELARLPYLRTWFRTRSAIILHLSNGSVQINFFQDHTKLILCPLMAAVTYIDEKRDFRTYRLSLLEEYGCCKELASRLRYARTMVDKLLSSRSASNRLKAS
reportedProperty: Kd (µM)
Supply the numeric figure in µM, leaving out any unit text.

Find the recorded Kd belonging to "Cc1ccc(C(=O)Nc2ccc(CN3CCN(C)CC3)c(C(F)(F)F)c2)cc1C#Cc1cnc(N)c2ncccc12" and report it.
9.6

====

- measurementTarget: PKCa (Homo sapiens (Human), UniProt P17252)
- assayInfo: Reaction Biology HotSpot kinase assay
- Type: biochemical
- assayConditions: 500 nM compound; read-out: Percentage kinase inhibition PKCa
reportedProperty: inhibition at 0.5 µM (%)

# lineNotation, measurementTarget, inhibition at 0.5 µM / %
measured = [
    ("Cc1ccc(C(=O)Nc2ccc(CN3CCN(C)CC3)c(C(F)(F)F)c2)cc1C#Cc1cnc(N)c2ccccc12", "PKCa (Homo sapiens (Human), UniProt P17252)", 0),
    ("Cc1ccc(C(=O)Nc2ccc(CN3CCN(C)CC3)c(C(F)(F)F)c2)cc1C#Cc1cc(N)nc2ccccc12", "PKCa (Homo sapiens (Human), UniProt P17252)", 6),
    ("Cc1ccc(C(=O)Nc2ccc(CN3CCN(C)CC3)c(C(F)(F)F)c2)cc1C#Cc1c(N)ncc2ccc(Cl)cc12", "PKCa (Homo sapiens (Human), UniProt P17252)", 5),
    ("COc1cc2nc(N)nc(C#Cc3cc(C(=O)Nc4ccc(CN5CCN(C)CC5)c(C(F)(F)F)c4)ccc3C)c2cc1OC", "PKCa (Homo sapiens (Human), UniProt P17252)", 5),
    ("Cc1ccc(C(=O)Nc2ccc(CN3CCN(C)CC3)c(C(F)(F)F)c2)cc1C#Cc1cnc(N)c2ncccc12", "PKCa (Homo sapiens (Human), UniProt P17252)", 0),
]

====

# key: entry, value: Kd
- measurementTarget: FLT3 (ITD) (Homo sapiens, UniProt P36888, ITD)
- assayInfo: DiscoverX Kd Elect binding
- assayConditions: Kd FLT3 (ITD)
Supply the numeric figure in nM, leaving out any unit text.

# compound, Kd (nM)
records = [
    ("Cc1ccc(C(=O)Nc2ccc(CN3CCN(C)CC3)c(C(F)(F)F)c2)cc1C#Cc1cnc(N)c2ncccc12 [HSN356]", 6.7),
]

Next compound, please.
Find the recorded Kd belonging to Cc1ccc(C(=O)Nc2ccc(CN3CCN(C)CC3)c(C(F)(F)F)c2)cc1C#Cc1cnc(N)c2ccccc12 [HSN334] and report it.
19

====

- measurementTarget: CDK9 (Homo sapiens (Human))
- Sequence (P50750 whole entry): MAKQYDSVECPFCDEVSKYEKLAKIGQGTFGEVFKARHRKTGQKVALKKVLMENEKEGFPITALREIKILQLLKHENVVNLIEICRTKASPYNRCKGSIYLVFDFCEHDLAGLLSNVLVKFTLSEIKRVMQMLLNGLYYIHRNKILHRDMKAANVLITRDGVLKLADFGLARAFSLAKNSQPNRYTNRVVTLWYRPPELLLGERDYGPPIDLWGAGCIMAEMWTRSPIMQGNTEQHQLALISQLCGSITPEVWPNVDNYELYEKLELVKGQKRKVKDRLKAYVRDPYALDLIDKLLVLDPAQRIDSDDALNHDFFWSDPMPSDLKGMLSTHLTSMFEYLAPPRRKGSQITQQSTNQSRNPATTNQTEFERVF
reportedProperty: Kd (nM)
Supply the numeric figure in nM, leaving out any unit text.

Find the recorded Kd belonging to Cc1ccc(C(=O)Nc2ccc(CN3CCN(C)CC3)c(C(F)(F)F)c2)cc1C#Cc1c(N)ncc2ccc(Cl)cc12 [HSN286] and report it.
2300

====

- measurementTarget: KDR/VEGFR2 (Homo sapiens (Human))
- assayInfo: Reaction Biology HotSpot kinase assay
- Format: biochemical
- assayConditions: 500 nM compound; read-out: Percentage kinase inhibition KDR/VEGFR2
reportedProperty: inhibition at 0.5 µM (%)

A. COc1cc2nc(N)nc(C#Cc3cc(C(=O)Nc4ccc(CN5CCN(C)CC5)c(C(F)(F)F)c4)ccc3C)c2cc1OC
B. Cc1ccc(C(=O)Nc2ccc(CN3CCN(C)CC3)c(C(F)(F)F)c2)cc1C#Cc1cc(N)nc2ccccc12
Please choose the item with the lower inhibition at 0.5 µM value from this pair: A and B Which one? Tell me its label.
B
(B: 15%, A: 90%)

====

- measurementTarget: FLT3 (Homo sapiens (Human))
- Sequence (P36888 27-993): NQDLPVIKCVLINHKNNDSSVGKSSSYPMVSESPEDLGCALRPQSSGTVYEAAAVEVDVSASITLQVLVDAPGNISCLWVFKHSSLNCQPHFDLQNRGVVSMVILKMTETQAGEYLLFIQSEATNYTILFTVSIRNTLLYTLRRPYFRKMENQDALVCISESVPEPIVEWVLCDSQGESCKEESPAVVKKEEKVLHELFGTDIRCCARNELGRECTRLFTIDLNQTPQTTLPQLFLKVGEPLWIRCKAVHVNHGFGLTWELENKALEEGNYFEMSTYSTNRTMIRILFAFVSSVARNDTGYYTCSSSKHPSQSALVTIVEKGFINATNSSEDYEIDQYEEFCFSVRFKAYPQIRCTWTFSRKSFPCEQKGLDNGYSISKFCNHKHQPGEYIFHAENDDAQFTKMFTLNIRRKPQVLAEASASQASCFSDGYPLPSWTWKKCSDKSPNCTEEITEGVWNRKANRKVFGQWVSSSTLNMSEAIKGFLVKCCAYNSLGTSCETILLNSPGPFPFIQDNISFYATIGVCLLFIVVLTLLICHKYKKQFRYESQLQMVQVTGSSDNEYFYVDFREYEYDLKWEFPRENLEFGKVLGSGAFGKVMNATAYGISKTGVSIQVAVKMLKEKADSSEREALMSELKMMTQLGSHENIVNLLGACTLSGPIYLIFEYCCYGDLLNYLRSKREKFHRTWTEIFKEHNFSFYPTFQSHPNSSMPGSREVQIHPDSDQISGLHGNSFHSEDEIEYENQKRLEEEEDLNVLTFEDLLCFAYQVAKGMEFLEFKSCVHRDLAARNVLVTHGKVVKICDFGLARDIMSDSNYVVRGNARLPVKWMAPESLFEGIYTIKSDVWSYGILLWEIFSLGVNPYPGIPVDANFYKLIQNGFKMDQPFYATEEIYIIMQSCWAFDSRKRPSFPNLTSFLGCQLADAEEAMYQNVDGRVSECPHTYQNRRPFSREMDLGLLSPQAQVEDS
- assayInfo: Reaction Biology HotSpot kinase assay
- Type: biochemical
- assayConditions: 500 nM compound; read-out: % inhibition of FLT3 activity
reportedProperty: inhibition at 0.5 µM (%)

a. Cc1ccc(C(=O)Nc2ccc(CN3CCN(C)CC3)c(C(F)(F)F)c2)cc1C#Cc1c(N)ncc2c(Cl)cccc12 [HSN353]
b. COc1cc2nc(N)nc(C#Cc3cc(C(=O)Nc4ccc(CN5CCN(C)CC5)c(C(F)(F)F)c4)ccc3C)c2cc1OC [HSN325]
Sorting by inhibition at 0.5 µM in descending order, would a or b appear first? Which one? Tell me its label.
a

====

- measurementTarget: FLT1/VEGFR1 (Homo sapiens (Human), UniProt P17948)
- Sequence (P17948 27-1338): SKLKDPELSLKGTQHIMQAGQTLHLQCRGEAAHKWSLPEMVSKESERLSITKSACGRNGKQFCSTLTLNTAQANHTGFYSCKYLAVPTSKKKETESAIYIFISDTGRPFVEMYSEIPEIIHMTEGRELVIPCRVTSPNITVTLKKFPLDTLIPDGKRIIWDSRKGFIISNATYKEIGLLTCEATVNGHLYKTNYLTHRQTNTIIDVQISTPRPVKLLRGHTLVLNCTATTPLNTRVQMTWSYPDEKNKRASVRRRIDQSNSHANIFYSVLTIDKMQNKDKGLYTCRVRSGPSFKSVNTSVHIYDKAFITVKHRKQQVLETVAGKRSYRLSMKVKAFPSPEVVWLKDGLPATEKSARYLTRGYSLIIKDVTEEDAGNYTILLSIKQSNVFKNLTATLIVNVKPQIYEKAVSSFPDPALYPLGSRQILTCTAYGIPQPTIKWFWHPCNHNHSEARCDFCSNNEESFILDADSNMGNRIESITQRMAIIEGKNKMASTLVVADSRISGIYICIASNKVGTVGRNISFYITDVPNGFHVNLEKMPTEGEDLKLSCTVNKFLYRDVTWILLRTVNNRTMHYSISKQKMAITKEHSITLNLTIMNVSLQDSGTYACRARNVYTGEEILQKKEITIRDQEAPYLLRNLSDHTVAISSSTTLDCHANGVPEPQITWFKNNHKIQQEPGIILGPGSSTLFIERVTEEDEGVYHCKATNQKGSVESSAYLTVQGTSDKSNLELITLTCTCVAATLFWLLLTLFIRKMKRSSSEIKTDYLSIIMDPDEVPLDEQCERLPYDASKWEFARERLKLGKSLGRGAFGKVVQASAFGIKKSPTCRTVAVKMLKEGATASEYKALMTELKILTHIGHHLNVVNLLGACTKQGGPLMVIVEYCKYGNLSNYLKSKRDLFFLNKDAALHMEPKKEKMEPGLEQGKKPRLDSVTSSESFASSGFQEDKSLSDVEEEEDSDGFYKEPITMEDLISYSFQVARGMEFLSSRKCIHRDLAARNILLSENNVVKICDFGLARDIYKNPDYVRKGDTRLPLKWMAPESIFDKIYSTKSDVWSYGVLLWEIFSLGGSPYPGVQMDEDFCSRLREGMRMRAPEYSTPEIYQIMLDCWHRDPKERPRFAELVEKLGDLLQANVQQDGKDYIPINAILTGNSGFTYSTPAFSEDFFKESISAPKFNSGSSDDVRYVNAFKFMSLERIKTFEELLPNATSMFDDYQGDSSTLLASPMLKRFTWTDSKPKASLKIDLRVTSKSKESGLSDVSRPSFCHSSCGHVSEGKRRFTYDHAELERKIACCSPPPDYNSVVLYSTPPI
- assayInfo: Reaction Biology HotSpot kinase assay
- Assay type: biochemical
- assayConditions: 500 nM compound; read-out: Percentage kinase inhibition FLT1/VEGFR1
reportedProperty: inhibition at 0.5 µM (%)

The following compounds have reported results that may help.
# lineNotation, valueReported
records = [
    ("Cc1ccc(C(=O)Nc2ccc(CN3CCN(C)CC3)c(C(F)(F)F)c2)cc1C#Cc1cnc(N)c2ccccc12", 79),
    ("Cc1ccc(C(=O)Nc2ccc(CN3CCN(C)CC3)c(C(F)(F)F)c2)cc1C#Cc1cnc(N)c2ncccc12", 94),
    ("Cc1ccc(C(=O)Nc2ccc(CN3CCN(C)CC3)c(C(F)(F)F)c2)cc1C#Cc1c(N)ncc2ccc(Cl)cc12", 86),
]

A. Cc1ccc(C(=O)Nc2ccc(CN3CCN(C)CC3)c(C(F)(F)F)c2)cc1C#Cc1cc(N)nc2ccccc12
B. COc1cc2nc(N)nc(C#Cc3cc(C(=O)Nc4ccc(CN5CCN(C)CC5)c(C(F)(F)F)c4)ccc3C)c2cc1OC
Sorting by inhibition at 0.5 µM in descending order, would A or B appear first? Which one? Tell me its label.
B
(B: 42%, A: 3%)

All figures here come from patent US20250084039A1.
